IC50 listing for selected molecules.
# experimentalTarget: PDE4B (Homo sapiens, UniProt Q07343)
# Sequence (Q07343 whole entry): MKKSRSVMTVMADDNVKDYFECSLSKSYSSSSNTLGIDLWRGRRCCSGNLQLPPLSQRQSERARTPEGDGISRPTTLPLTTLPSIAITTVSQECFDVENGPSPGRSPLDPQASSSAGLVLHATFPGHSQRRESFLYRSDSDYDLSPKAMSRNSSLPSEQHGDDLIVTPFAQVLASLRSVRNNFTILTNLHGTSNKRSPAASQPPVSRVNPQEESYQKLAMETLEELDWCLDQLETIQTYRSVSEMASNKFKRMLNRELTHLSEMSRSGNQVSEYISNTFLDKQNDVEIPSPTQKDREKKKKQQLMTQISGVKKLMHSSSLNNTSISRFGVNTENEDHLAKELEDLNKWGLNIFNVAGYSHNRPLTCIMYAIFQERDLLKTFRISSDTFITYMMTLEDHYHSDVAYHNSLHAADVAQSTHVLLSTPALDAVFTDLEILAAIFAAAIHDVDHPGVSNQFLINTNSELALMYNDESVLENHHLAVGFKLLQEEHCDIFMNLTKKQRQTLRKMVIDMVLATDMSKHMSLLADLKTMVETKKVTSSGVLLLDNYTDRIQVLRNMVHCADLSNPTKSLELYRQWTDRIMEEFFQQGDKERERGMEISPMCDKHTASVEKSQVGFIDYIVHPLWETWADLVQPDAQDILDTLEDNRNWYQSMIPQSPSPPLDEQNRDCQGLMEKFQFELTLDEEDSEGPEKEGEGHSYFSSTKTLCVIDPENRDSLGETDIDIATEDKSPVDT
# assay: In-vitro assay for PDE4 enzymes, real-time enzyme-coupled spectrophotometric assay, PDE4B Activity (Table 10)
# Assay type: biochemical
# conditionSet: human PDE4B (hPDE4B), enzyme-coupled spectrophotometric assay; read-out: PDE4B Activity, hPDE4B

Consider the worked cases shown below.
> print(dat)
                                   molecule                    experimentaltarget         val
1  COc1ccc(Cc2ccc(N3CCN(C)C3=O)nc2)c(F)c1-c1cccc(Cl)c1  PDE4B (Homo sapiens, UniProt Q07343)      < 5 µM
2  COc1ccc(C[S+]([O-])c2ccc(F)cc2)cc1-c1cccc([N+](=O)[O-])c1 (centres unmarked)  PDE4B (Homo sapiens, UniProt Q07343)  5 to 20 µM
3  COc1ccc(Cc2ccc(N3CC(O)C3)nc2)c(F)c1-c1cccc(Cl)c1  PDE4B (Homo sapiens, UniProt Q07343)      < 5 µM
4  COc1ccc(Cc2ccc(CNC(C)=O)c(O)c2)c(F)c1-c1cccc(Cl)c1  PDE4B (Homo sapiens, UniProt Q07343)      < 5 µM

Next, consider the following molecule.
stdin: Which measured IC50 belongs to "NC(=O)Nc1ccc(Cc2ccc(OC3COC3)c(-c3cccc(Cl)c3)c2)cc1" , tested on PDE4B (Homo sapiens, UniProt Q07343)?
stdout: < 5 µM

Sourced from patent US8791267B2
